Molecular target: MMP‐7 (Homo sapiens, UniProt P09237)
Construct: GenScript (contract testing)
Sequence (P09237 95-267, species assumed): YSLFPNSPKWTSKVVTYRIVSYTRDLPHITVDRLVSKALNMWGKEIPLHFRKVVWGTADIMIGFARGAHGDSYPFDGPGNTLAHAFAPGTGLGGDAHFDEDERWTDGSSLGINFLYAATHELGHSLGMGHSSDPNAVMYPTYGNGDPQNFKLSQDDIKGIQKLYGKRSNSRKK
Test: MMP enzyme activity assay
Type: biochemical
Protocol: Protease stock solutions (10 mmol/L) were diluted with assay buffer to make final test solutions containing no more than 2.0% DMSO. The samples were dispensed into plates; substrate was added and read with PHERAstar PLUS (BMG Labtech, Ortenberg, Germany) plate reader.
PROPERTY_MEASURED: pIC50
// returns pIC50 (minus log10 of molar concentration), number only

# pIC50 (molecule: CNC(=O)[C@H](Cc1c[nH]c2ccccc12)NC(=O)[C@@H](CC(=O)NO)CC(C)C ) is 8.05

###

experiment: Pharmacokinetics of CM352 in rats after intravenous administration; type: in vivo; details: plasma; rat, 1 mg/kg intravenous, n=3; read-out: Norm. Vz (normalized volume of distribution)
PROPERTY_MEASURED: Vd (L/kg)
The reply should contain only the number, in L/kg.

For record CNC(=O)c1ccc(Oc2ccc(S(=O)(=O)[C@]3(C(=O)NO)CCC4(CCNCC4)C3)cc2)cc1 [CM352] the listed Vd is 0.66

###

target: MMP‐9 (Homo sapiens)
Sequence (P14780 94-707, species assumed): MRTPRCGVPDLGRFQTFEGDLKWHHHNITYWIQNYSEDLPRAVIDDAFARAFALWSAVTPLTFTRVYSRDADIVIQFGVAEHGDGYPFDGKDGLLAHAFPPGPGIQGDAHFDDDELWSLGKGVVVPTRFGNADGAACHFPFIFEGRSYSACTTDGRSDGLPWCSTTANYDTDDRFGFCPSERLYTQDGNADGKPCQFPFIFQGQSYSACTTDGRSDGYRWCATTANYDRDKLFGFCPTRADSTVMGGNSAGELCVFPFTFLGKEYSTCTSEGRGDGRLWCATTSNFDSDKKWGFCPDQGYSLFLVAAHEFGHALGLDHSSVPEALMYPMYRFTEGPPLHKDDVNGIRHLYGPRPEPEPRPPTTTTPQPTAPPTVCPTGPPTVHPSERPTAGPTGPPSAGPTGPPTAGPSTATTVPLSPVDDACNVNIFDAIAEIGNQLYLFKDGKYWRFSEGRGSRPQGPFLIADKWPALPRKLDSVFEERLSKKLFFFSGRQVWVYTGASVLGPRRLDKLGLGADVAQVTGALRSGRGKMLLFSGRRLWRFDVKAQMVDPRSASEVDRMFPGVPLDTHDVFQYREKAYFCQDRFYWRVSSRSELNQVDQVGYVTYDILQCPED
PROPERTY_MEASURED: IC50 (nM)
Please give a number only; it is taken to be in nM.

// IC50 lookup, compound = CNC(=O)c1ccc(Oc2ccc(S(=O)(=O)[C@]3(C(=O)NO)CCC4(CCNCC4)C3)cc2)cc1 , result: 10

###

test system: tissue‐type plasminogen activator–induced fibrinolysis in rat whole blood; assay: Whole blood clot formation and lysis assay (ROTEM thromboelastometry), rat blood; format: biochemical; conditions: rat whole blood, tPA‐induced fibrinolysis, ROTEM; read-out: effective concentration to delay lysis time by 50%
PROPERTY_MEASURED: pEC50
Note: pEC50 values are expressed as the negative base-10 logarithm of concentration in M.

Query CNC(=O)c1ccc(Oc2ccc(S(=O)(=O)[C@]3(C(=O)NO)CCC4(CCNCC4)C3)cc2)cc1 [CM352] yields pEC50 of 5.43

###

assay: Pharmacokinetics of CM352 in rats after intravenous administration; assay type: in vivo; settings: plasma; rat, 1 mg/kg intravenous, n=3; read-out: Cmax (maximal plasma concentration)
PROPERTY_MEASURED: Cmax (µM)
Form entry: value (µM) — number only.

Measured Cmax of CNC(=O)c1ccc(Oc2ccc(S(=O)(=O)[C@]3(C(=O)NO)CCC4(CCNCC4)C3)cc2)cc1 : 7.8
